Values compiled from ChEMBL document CHEMBL1138290.

test: Cell cycle arrest in KB/HeLa cells assessed as accumulation at S phase at 10 nM after 24 hrs by flow cytometric analysis; type: functional, cell-based; conditions: Homo sapiens
Decision: Activity compared against 30%; not below it gives Fulfilled, below it gives Not fulfilled.

chemical_structure	discrete_label
COc1ccc(S(=O)(=O)Oc2c3ccccc3cc3ccccc23)cc1	Not fulfilled
COc1cc2c(c(OC)c1OC)-c1ccc(OC)c(=O)cc1[C@@H](NC(C)=O)CC2	Fulfilled
COC(=O)Nc1nc2cc(C(=O)c3cccs3)ccc2[nH]1	Not fulfilled
CC(=O)O[C@H]1C(=O)[C@@]2(C)[C@H]([C@H](OC(=O)c3ccccc3)[C@]3(O)C[C@H](OC(=O)[C@H](O)[C@@H](NC(=O)c4ccccc4)c4ccccc4)C(C)=C1C3(C)C)[C@]1(OC(C)=O)CO[C@@H]1C[C@@H]2O	Not fulfilled
CC[C@]1(O)C[C@H]2CN(CCc3c([nH]c4ccccc34)[C@@](C(=O)OC)(c3cc4c(cc3OC)N(C=O)[C@H]3[C@@](O)(C(=O)OC)[C@H](OC(C)=O)[C@]5(CC)C=CCN6CC[C@]43[C@@H]65)C2)C1	Not fulfilled
COc1ccc(S(=O)(=O)Oc2c3ccccc3cc3sccc23)cc1	Not fulfilled
